Cited source for all entries: patent US11311624B2

system_tested: PI3Kα (Homo sapiens)
Sequence (P42336 whole entry, species assumed): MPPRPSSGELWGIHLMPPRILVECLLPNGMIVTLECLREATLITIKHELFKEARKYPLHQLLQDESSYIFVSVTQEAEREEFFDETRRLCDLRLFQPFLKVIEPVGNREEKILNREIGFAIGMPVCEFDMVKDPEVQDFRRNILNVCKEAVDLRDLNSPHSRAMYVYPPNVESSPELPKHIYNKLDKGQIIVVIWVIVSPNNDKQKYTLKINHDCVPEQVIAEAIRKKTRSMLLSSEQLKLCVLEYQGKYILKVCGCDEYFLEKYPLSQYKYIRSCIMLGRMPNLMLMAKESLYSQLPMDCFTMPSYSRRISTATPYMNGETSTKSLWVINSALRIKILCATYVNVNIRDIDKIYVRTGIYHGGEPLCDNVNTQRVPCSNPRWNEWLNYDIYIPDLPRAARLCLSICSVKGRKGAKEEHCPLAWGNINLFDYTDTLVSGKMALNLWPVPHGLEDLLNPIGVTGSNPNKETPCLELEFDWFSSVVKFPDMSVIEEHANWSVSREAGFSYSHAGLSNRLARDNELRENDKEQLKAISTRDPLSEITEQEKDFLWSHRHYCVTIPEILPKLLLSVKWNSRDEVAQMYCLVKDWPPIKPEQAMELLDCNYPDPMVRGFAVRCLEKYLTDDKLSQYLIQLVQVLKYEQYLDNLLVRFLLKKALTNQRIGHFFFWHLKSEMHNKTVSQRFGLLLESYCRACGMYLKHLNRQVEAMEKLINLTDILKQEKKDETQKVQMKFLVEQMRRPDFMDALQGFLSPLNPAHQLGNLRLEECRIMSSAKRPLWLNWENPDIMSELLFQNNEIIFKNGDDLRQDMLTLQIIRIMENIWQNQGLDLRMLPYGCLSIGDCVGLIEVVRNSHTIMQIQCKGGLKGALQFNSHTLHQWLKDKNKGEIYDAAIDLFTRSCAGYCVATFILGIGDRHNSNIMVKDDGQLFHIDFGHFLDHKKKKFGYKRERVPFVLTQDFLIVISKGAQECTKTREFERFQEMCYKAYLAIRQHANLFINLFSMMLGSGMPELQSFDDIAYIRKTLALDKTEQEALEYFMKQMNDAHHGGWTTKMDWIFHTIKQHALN
Sequence (P27986 whole entry partner, species assumed): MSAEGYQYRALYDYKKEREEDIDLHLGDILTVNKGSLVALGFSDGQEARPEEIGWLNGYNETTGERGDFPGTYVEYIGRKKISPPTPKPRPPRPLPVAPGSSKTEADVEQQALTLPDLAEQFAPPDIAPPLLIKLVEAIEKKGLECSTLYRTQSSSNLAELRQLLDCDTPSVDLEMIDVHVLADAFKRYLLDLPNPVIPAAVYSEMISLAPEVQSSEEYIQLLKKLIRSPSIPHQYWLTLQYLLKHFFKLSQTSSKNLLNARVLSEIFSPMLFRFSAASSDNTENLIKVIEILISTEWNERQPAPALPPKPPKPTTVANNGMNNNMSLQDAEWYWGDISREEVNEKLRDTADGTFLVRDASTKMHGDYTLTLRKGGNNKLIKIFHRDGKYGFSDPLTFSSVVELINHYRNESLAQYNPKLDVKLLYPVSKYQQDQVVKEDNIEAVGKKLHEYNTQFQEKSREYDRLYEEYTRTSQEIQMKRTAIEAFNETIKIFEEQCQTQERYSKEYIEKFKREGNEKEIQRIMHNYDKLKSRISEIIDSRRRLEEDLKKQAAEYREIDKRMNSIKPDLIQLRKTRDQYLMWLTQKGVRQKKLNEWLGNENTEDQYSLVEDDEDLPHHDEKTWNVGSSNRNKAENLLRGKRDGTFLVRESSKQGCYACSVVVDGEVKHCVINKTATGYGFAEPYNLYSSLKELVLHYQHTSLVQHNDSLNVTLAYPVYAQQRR
test_method_notes: In vitro inhibition of PI3Kα
Assay type: biochemical
study_conditions: Table 14; read-out: IC50 (nM) PI3Kα
outcome_measure: IC50 (nM)
Answers are plain numbers, in nM.

Below, 2 compounds whose answers are already recorded.
NOCCOCCOCCOCCN(CCO)c1nc(N2CCOCC2)nc(-n2c(C(F)F)nc3ccccc32)n1 [ST-5-46]    10.9
COCCN(CCO)c1nc(N2CCOCC2)nc(-n2c(C(F)F)nc3ccccc32)n1 [ST-6-01]    5.1

Proceed to the following item.
Return IC50 (reported value) for this compound: OCCN(CCO)c1nc(N2CCOCC2)nc(-n2c(C(F)F)nc3ccccc32)n1 [ST-5-32]
3.74
